Data provenance is paper PMC11062922.

test system: AURKA; parameters: species or system human, MV4-11 + K-562 + COLO205 + SK-N-BE2 + OVCAR-8; conditions: read-out: apparent Kd; compound concentrations:100 nM and 1000 nM (sheet 'Samples'); n = 1
measuredQuantity: potency estimated from few doses (nM)
Report only the number, with the unit nM understood.

As a guide, the following entries are already answered.
- molecule: "Nc1nc(N)c2nc(-c3ccccc3)[nH]c2n1 [SKF-12778]"
  targetOfAssay: "AURKA"
  potency estimated from few doses (nM): 1110
- molecule: "O=C(Nc1n[nH]c2nc(-c3ccccc3O)ccc12)C1CC1 [SB-711880]"
  targetOfAssay: "AURKA"
  potency estimated from few doses (nM): 286

query: So what does the record say about potency estimated from few doses for CC(C)Oc1ccc2c(-c3ccnc(Nc4ccc(N5CCN(C)CC5)cc4)n3)cnn2n1 [GW696155X] ?
result: 602

====

test system: VDAC3; design: species or system human, MV4-11 + K-562 + COLO205 + SK-N-BE2 + OVCAR-8; conditions: read-out: apparent Kd; compound concentrations:100 nM and 1000 nM (sheet 'Samples'); n = 1
The following compounds are shown together with reported potency estimated from few doses values.
Report only the number, with the unit µM understood.

- compound: "CS(=O)(=O)Cc1ccc(Nc2nccc(-c3c(-c4cccc(NC(=O)C5CCCCC5)c4)nn4ncccc34)n2)cc1 [GSK350559A]"
  readoutNumber: 2.03
- compound: "O=C(Nc1n[nH]c2nc(-c3nccs3)c(Br)cc12)C1CC1 [SB-742251]"
  readoutNumber: 2
- compound: "O=c1cc(N2CCOCC2)nc2n(Cc3cccc(F)c3)ccn12 [GSK2297430A]"
  readoutNumber: 1.83
- compound: "NS(=O)(=O)c1ccc(Nc2ncc(-c3ccccc3)o2)cc1 [GW572399X]"
  readoutNumber: 1.58

query: So what does the record say about potency estimated from few doses for Cc1cnc(Nc2ccc(F)cc2Cl)nc1-c1c[nH]c(C(=O)N[C@H](CO)c2cccc(Cl)c2)c1 [Vertex11e] ?
result: 1.38

====

system: MAPK11; parameters: species or system human, MV4-11 + K-562 + COLO205 + SK-N-BE2 + OVCAR-8; settings: read-out: apparent Kd; compound concentrations:100 nM and 1000 nM (sheet 'Samples'); n = 1
The following molecules are shown together with reported potency estimated from few doses values.

- molecule: "CC(C)Nc1ncc2cc(Oc3ccc(F)cc3F)c(=O)n(C)c2n1.Cl [RO3309180-001]"
  targetOfAssay: "MAPK11"
  potency estimated from few doses: "439 nM"

query: So what does the record say about potency estimated from few doses for O=C(Nc1n[nH]c2nc(-c3ccccc3)c(Cl)cc12)C1CC1 [SB-734909] ?
result: 1940 nM

query: Param item: Fc1ccc(-c2ncn(C3CCNCC3)c2-c2ccnc(Oc3ccc4c(c3)OCO4)n2)cc1 [SB-250715]
result: 40.4 nM

query: Param item: O=c1[nH]c2nc(NC3CCOCC3)ncc2cc1Oc1ccc(F)cc1F [RO3310867-000]
result: 655 nM

query: Param item: Nc1c(C(=O)c2ccccc2)cnn1-c1ccc(F)cc1 [RO1151246-000]
result: 1420 nM

====

system: LATS1; set-up: species or system human, MV4-11 + K-562 + COLO205 + SK-N-BE2 + OVCAR-8; settings: read-out: apparent Kd; compound concentrations:100 nM and 1000 nM (sheet 'Samples'); n = 1
Respond with TRUE for potency estimated from few doses values of 1000 nM and above, FALSE for values below.

- compound: "CN1C[C@@H]2Cn3c(c(C4=C(c5cn(C)c6ccccc56)C(=O)NC4=O)c4ccccc43)C[C@H]2C1.Cl"
  classification: "TRUE"

query: Please tell me: is the compound CCn1c(-c2nonc2N)nc2c(C#CC(C)(C)O)ncc(OC[C@@H]3CCCN3)c21.O=C(O)C(F)(F)F [GSK614526A] at or over 1000 nM in terms of potency estimated from few doses?
result: FALSE

query: Param item: CCn1c(-c2nonc2N)nc2c(C#CC(C)(C)O)nc(O[C@@H](CN)c3ccccc3)cc21.O=C(O)C(F)(F)F [GSK1007102B]
result: FALSE

query: Param item: CC(C)Oc1ccc2c(-c3ccnc(Nc4ccc(N5CCN(C)CC5)cc4)n3)cnn2n1 [GW696155X]
result: TRUE

query: Param item: COc1ccc(C[C@@H](CN)NC(=O)c2cc(Br)c(-c3ccnc4[nH]ccc34)s2)cc1.COc1ccc(C[C@@H](CN)NC(=O)c2cc(Br)c(-c3ccnc4[nH]ccc34)s2)cc1.Cl.Cl [GSK1389063A]
result: FALSE

query: Param item: CCn1c(-c2nonc2N)nc2c(C#CC(C)(C)O)nc(OCCN)cc21.CCn1c(-c2nonc2N)nc2c(C#CC(C)(C)O)nc(OCCN)cc21.Cl.Cl [GSK902056A]
result: FALSE

====

tested on: AAK1; design: species or system human, MV4-11 + K-562 + COLO205 + SK-N-BE2 + OVCAR-8; settings: read-out: apparent Kd; compound concentrations:100 nM and 1000 nM (sheet 'Samples'); n = 1
The following molecules are shown together with reported potency estimated from few doses values.
Report only the number, with the unit nM understood.

- molecule: "CN1C[C@@H]2Cn3c(c(C4=C(c5cn(C)c6ccccc56)C(=O)NC4=O)c4ccccc43)C[C@H]2C1.Cl"
  readoutUnit: "nM"
  potency estimated from few doses: 403

query: So what does the record say about potency estimated from few doses for Cl.Cl.NC[C@H](CC1CCCCC1)NC(=O)c1ccc(-c2ccnc3[nH]ccc23)s1.NC[C@H](CC1CCCCC1)NC(=O)c1ccc(-c2ccnc3[nH]ccc23)s1 [GSK1581428A] ?
result: 54.5

query: Param item: CC(=O)N[C@@H](Cc1ccc(OP(=O)(O)O)cc1)C(=O)N[C@H]1CCC(=O)N2CCC[C@@H](C(=O)NCc3ccc(Cl)cc3)N2C1=O
result: 737

query: Param item: Nc1nc(-c2ccc3c(N)n[nH]c3c2)cc(N2CCCCC2)n1 [GSK2228768A]
result: 749

====

tested on: CDC42BPB; set-up: species or system human, MV4-11 + K-562 + COLO205 + SK-N-BE2 + OVCAR-8; settings: read-out: apparent Kd; compound concentrations:100 nM and 1000 nM (sheet 'Samples'); n = 1
measuredQuantity: potency estimated from few doses (µM)
Report only the number, with the unit µM understood.

- compound: "Cl.Cl.NC[C@H](Cc1ccc(C(F)(F)F)cc1)NC(=O)c1cc(Br)c(-c2ccnc3[nH]ccc23)s1.NC[C@H](Cc1ccc(C(F)(F)F)cc1)NC(=O)c1cc(Br)c(-c2ccnc3[nH]ccc23)s1 [GSK1487252A]"
  potency estimated from few doses (µM): 2.46
- compound: "CCn1c(-c2nonc2N)nc2cncc(C(=O)N3CCNCC3)c21.Cl [SB-759335-B]"
  potency estimated from few doses (µM): 1.64
- compound: "NCCNS(=O)(=O)c1ccc(-c2ccnc3[nH]ccc23)cc1 [GSK977617A]"
  potency estimated from few doses (µM): 1.7

Here is another compound to look at.
query: Entry CC(C)NCC(Cc1ccccc1)NC(=O)c1cc(Br)c(-c2ccnc3[nH]ccc23)s1.CC(C)NCC(Cc1ccccc1)NC(=O)c1cc(Br)c(-c2ccnc3[nH]ccc23)s1.Cl.Cl (centres unmarked) [GSK1383281A] , system CDC42BPB: what potency estimated from few doses was measured?
result: 1.32

====

test system: FLT3; parameters: species or system human, MV4-11 + K-562 + COLO205 + SK-N-BE2 + OVCAR-8; details: read-out: apparent Kd; compound concentrations:100 nM and 1000 nM (sheet 'Samples'); n = 1
The following molecules are shown together with reported potency estimated from few doses values.
Report only the number, with the unit nM understood.

As a guide, the following entries are already answered.
- molecule: "CNC(=O)c1ccccc1Nc1nc(Nc2ccc(N3CCOCC3)cc2)ncc1Cl.Cl [GSK1576028A]"
  targetOfAssay: "FLT3"
  readoutNumber: 616
- molecule: "Cc1cccc(Nc2nc(N[C@H]3CCNC3)ncc2C(N)=O)c1.Cl [GSK2197149A]"
  targetOfAssay: "FLT3"
  readoutNumber: 1070
- molecule: "N#Cc1cccc(Nc2nccc(-c3cnn4ncccc34)n2)c1 [GW778894X]"
  targetOfAssay: "FLT3"
  readoutNumber: 137

Here is another molecule to look at.
query: So what does the record say about potency estimated from few doses for CN(C)CCNC(=O)Nc1ccc(N(C)c2ccnc(Nc3ccc(CS(C)(=O)=O)cc3)n2)cc1.Cl [GW830900A] ?
result: 39.9

====

tested on: CDK17; parameters: species or system human, MV4-11 + K-562 + COLO205 + SK-N-BE2 + OVCAR-8; conditions: read-out: apparent Kd; compound concentrations:100 nM and 1000 nM (sheet 'Samples'); n = 1
The following compounds are shown together with reported potency estimated from few doses values.
Report only the number, with the unit µM understood.

As a guide, the following entries are already answered.
- compound: "CS(=O)(=O)N1CCC(Nc2ncc(C(=O)c3c(F)cccc3F)c(N)n2)CC1"
  potency estimated from few doses, µM: 1.47
- compound: "CN1CCC(C(=O)Nc2n[nH]c3nnc(-c4ccccc4)cc23)CC1.Cl"
  potency estimated from few doses, µM: 1.91
- compound: "COc1cc[nH]c1/C=C1\\C(=O)Nc2ccc(F)c(C#C[C@@H](O)[C@@H](N)[C@@H](C)O)c21"
  potency estimated from few doses, µM: 0.774

Here is another compound to look at.
query: So what does the record say about potency estimated from few doses for CN1CCC(C(=O)Nc2n[nH]c3nc(-c4ccc(O)cc4)c(Br)cc23)CC1 ?
result: 0.914
